# assaySummary: Plasma protein binding by equilibrium dialysis, human plasma
# Type: in vitro ADME
# assayContext: pH 7.4, 37° C., read-out: plasma protein binding (% Bound)
readoutLabel: fraction unbound at 22 h, 10 μM

Ask | Fill in the blank: the reported fraction unbound at 22 h, 10 μM of `FC(F)(F)c1ccc(Nc2ncnc3c2CCN(c2ncccc2Cl)C3)cc1` is ____.
Reply | < 0.001

----------
# assaySummary: Pharmacokinetic profile after intravenous and oral administration
# Assay type: in vivo
# assayContext: male, Sprague-Dawley, plasma; rat; IV 1 mg/kg, oral 5 mg/kg
readoutLabel: bioavailability (%)
// note: answer is a bare numeric in %

Ask | Fill in the blank: the reported bioavailability of `FC(F)(F)c1ccc(Nc2ncnc3c2CCN(c2ncccc2Cl)C3)cc1` is ____.
Reply | 37

Ask | Fill in the blank: the reported bioavailability of `CS(=O)(=O)c1cccnc1N1CCc2c(ncnc2Nc2ccc(C(F)(F)F)cc2)C1` is ____.
Reply | 47.9

Ask | Fill in the blank: the reported bioavailability of `N#Cc1nc2c(c(Nc3ccc(C(F)(F)F)cc3)n1)CCN(c1ncccc1Cl)C2` is ____.
Reply | 17.9
